Assay system: T1, human ROR1 (full-length, on the cell surface) (human, UniProt Q01973 30-937)
T1 construct: whole, on cells; the tumour cell lines carry their own ROR1; also called Ba/F3-ROR1 cells; Jeko-1
T1 sequence (Q01973 30-937): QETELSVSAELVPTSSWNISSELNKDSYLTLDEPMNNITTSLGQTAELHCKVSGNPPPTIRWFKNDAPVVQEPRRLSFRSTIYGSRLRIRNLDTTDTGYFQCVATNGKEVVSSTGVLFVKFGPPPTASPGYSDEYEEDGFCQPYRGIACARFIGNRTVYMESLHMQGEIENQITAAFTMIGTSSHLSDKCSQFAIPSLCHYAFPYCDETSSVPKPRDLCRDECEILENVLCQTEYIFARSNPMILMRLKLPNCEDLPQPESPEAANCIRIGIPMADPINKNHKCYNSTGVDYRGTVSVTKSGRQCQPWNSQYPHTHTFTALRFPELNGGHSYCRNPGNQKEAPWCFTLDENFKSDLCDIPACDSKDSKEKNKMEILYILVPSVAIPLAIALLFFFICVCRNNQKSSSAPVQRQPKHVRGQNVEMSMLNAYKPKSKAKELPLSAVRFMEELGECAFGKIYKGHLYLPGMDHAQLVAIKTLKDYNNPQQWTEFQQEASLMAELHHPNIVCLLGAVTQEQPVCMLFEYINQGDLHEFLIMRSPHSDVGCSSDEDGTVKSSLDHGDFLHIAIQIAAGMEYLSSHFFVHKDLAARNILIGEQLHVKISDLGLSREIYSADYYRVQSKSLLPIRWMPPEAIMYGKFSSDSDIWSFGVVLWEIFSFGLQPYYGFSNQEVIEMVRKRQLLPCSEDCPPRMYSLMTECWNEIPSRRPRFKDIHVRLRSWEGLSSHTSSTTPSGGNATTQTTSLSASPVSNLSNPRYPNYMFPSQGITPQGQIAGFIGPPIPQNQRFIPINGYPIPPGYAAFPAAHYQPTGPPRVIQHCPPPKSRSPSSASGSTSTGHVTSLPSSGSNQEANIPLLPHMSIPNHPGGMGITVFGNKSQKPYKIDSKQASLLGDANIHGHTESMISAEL
Experimental protocol: flow cytometry, HT-29 cells
The reader will find reported EC50 values listed item by item below.

1) 19F6-Hu25 (antibody, human IgG1, kappa, V domains shown, humanized, human IgG1 / kappa) VH: QVQLQESGPGLVKPSETLSLTCTVSGYSITSDYAWNWIRQPPGKGLEWMGYISYSGSIRYNPSLKDRITISRDTSKNQFSLKLSSVTAADTAVYYCARGEITYYFDYWGQGTLVTVSS VL: ETTLTQSPAFMSATPGDKVTISCKASTDIDDDMNWYQQKPGEPPKLIISEGNTLRPGIPPRFSSSGYGTDFTFTINNIESEDAADYYCLQSNDLPLTFGQGTKLEIKR : 0.08 nM
2) 3D8-HuC44 (antibody, human IgG1, kappa, V domains shown, humanized, human IgG1 / kappa) VH: EVQLVESGGGLVQPGGSLRLSCAASGFTFSSYAMSWVRQAPGKGLEWVSSINSGGSTYYPDSVKGRFTISRDNSKNTLYLQMNSLRAEDTAVYYCARVNYYGYGDYAMDYWGQGTLVTVSS VL: DIQMTQSPSSLSASVGDRVTITCQASQDISNYLTWFQQKPGKSPKTLIHRANRLVTGVPSRFSGSGSGTDFTFTISSLQPEDIATYYCLQYDEFPYTFGGGTKVEIKR : 0.16 nM

Would you kindly look at the next entry?
Looking up 19F6-Hu11 (antibody, human IgG1, kappa, V domains shown, humanized, human IgG1 / kappa) VH: QVQLQESGPGLVKPSETLSLTCTVTGYSITSDYAWNWIRQPPGKGLEWMGYISYSGSIRYKPSLKDRITISRDTSKNQFSLKLSSVTAADTAVYYCARGEITYYFDYWGQGTLVTVSS VL: DIQMTQSPSSLSASVGDRVTITCITTTDIDDDMNWYQQKPGKAPKLLISEGNTLRPGVPSRFSGSGYGTDFTLTISSLQPEDFATYYCLQSNDLPLTFGQGTKLEIKR , I found its EC50 recorded as 0.08 nM
